Test system: CC-B
method: Relative transcriptional activation activity relative to t-RA
Format: functional, Homo sapiens
The entries below are paired with their reported Relative activity.
API note: the answer field is a bare number with no unit suffix.

Record excerpt, results attached:
>>> reported_value("CCOC(=O)c1ccc(OC(=O)c2ccc3c(c2)C(C)(C)CCN3C)cc1")
54
>>> reported_value("CC1(C)CCOc2ccc(C(=O)Oc3ccc(/C=N\\N=C(/N)S)cc3)cc21")
33
>>> reported_value("CC(/C=C/C=C(\\C)c1ccc2c(c1)C(C)(C)CCS2)=C\\C(=O)O")
52

// switching to the query compound
Quick note, Relative activity for CCOC(=O)c1ccc(/C=C(\C)c2ccc3c(c2)CC[C@@H](CC)[S+]3[O-])cc1 (some centres undefined) landed at 35.8

meta.source: ChEMBL document CHEMBL1130202
